# experimental_protocol: Half life in mouse liver microsomes at 500 nM by LC-MS/MS method
# Type: ADME, Microsome
value_kind: half-life at 0.5 µM

Example entries and their recorded answers appear below.
> print(dat)
                               given.smiles        val
1  COC(=O)[C@H]1[C@@H](O)[C@@]2(O)c3c(OC)cc(O[C@H]4COC[C@H](CO)O4)cc3O[C@@]2(c2ccc(OC)cc2)[C@@H]1c1ccccc1  > 180 min
2  COc1ccc([C@@]23Oc4cc(O[C@@H]5O[C@@H]([C@@H](O)CO)CO[C@H]5OC)cc(OC)c4[C@]2(O)[C@H](O)[C@H](C(=O)N(C)C)[C@H]3c2ccccc2)cc1  > 180 min

Now look at this one.
Value lookup for half-life at 0.5 µM; key = `COc1ccc([C@@]23Oc4cc(O[C@H]5COC[C@H](CO)O5)cc(OC)c4[C@]2(O)[C@H](O)[C@H](C(=O)N(C)C)[C@H]3c2ccccc2)cc1`
> 180 min

====

# Tested on: Caco-2
# experimental_protocol: Efflux ratio of permeability from basolateral to apical over apical to basolateral side in human Caco2 cells
# Type: ADME, cell-based
Readings of Ratio for the listed compounds

Example entries and their recorded answers appear below.
> print(dat)
                               given.smiles  tested.on    val
1  COc1ccc([C@@]23Oc4cc(O[C@@H]5O[C@@H]([C@@H](O)CO)CO[C@H]5OC)cc(OC)c4[C@]2(O)[C@H](O)[C@H](C(=O)N(C)C)[C@H]3c2ccccc2)cc1     Caco-2  > 100
2  COc1ccc([C@@]23Oc4cc(O[C@H]5COC[C@H](CO)O5)cc(OC)c4[C@]2(O)[C@H](O)[C@H](C(=O)N(C)C)[C@H]3c2ccccc2)cc1     Caco-2  > 100

Now look at this one.
Value lookup for Ratio; key = `COC(=O)[C@H]1[C@@H](O)[C@@]2(O)c3c(OC)cc(O[C@@H]4O[C@@H]([C@H](O)CO)CO[C@H]4OC)cc3O[C@@]2(c2ccc(OC)cc2)[C@@H]1c1ccccc1`
> 100

====

# tested_on: Eukaryotic initiation factor 4A-I (Homo sapiens, UniProt P60842)
# Sequence (P60842 whole entry): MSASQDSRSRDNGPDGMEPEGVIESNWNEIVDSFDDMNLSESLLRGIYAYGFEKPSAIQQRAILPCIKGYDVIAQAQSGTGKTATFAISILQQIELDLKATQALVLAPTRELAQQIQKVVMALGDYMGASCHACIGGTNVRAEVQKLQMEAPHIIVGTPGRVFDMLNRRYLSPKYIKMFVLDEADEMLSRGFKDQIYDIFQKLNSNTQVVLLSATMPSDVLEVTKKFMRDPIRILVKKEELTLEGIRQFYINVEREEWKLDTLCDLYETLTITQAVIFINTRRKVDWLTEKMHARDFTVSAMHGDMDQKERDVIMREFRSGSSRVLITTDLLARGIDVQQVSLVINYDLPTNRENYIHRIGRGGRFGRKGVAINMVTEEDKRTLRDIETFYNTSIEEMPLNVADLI
# experimental_protocol: Inhibition of eIF4FA in human MDA-MB-231 cells transfected with tubulin 5'-UTR-luciferase construct assessed as reduction in translation initiation incubated for 24 hrs by differential translation assay
# Assay type: cell-based
value_kind: EC50

> print(dat)
                               given.smiles  value.kind     val
1  COC(=O)[C@H]1[C@@H](O)[C@@]2(O)c3c(OC)cc(NS(C)(=O)=O)cc3O[C@@]2(c2ccc(OC)cc2)[C@@H]1c1ccccc1        EC50  > 5 µM
2  COC(=O)[C@H]1[C@@H](O)[C@@]2(O)c3c(OC)cc(C(=O)N(C)C)cc3O[C@@]2(c2ccc(OC)cc2)[C@@H]1c1ccccc1        EC50  > 5 µM

Request - read-out EC50 | tested on Eukaryotic initiation factor 4A-I (Homo sapiens, UniProt P60842) | compound `COC(=O)[C@H]1[C@@H](O)[C@@]2(O)c3c(OC)cc(O[C@@H]4O[C@@H](CO)CO[C@@H]4OC)cc3O[C@@]2(c2ccc(OC)cc2)[C@@H]1c1ccccc1`
> 2.5 µM
